experimentalSystem: RIPK1 kinase (Homo sapiens)
Construct: purchased Promega VA7593
Sequence (Q13546 whole entry): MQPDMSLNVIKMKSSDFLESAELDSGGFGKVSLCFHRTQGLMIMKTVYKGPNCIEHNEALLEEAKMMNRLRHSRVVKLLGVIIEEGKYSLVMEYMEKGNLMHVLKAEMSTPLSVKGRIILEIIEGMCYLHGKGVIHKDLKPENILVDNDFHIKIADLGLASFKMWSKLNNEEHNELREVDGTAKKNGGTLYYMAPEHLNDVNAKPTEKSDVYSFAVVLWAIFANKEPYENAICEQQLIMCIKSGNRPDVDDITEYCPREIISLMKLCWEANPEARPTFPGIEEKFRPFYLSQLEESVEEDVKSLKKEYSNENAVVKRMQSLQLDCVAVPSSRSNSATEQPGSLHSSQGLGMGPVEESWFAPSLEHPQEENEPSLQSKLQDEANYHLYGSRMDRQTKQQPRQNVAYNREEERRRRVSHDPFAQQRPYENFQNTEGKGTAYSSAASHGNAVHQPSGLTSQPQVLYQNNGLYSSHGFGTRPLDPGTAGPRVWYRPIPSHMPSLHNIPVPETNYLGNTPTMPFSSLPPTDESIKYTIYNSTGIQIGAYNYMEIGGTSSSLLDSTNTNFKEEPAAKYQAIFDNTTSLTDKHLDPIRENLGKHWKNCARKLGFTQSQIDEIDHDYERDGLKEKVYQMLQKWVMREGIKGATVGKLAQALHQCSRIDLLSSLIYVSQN
assaySummary: In vitro RIPK1 kinase activity assay (ADP-Glo), inhibition by compounds at 1 μM
Format: biochemical
conditionContext: compound 1 μM; ATP 10 μM; MBP substrate 100 μg/mL; read-out: RIPK1 kinase activity inhibition rate range
propertyLabel: inhibition at 1 µM

| compound | experimentalSystem | propertyLabel | reportedMeasurement |
| --- | --- | --- | --- |
| CN1C(=O)[C@@H](NC(=O)C(=O)NCCc2ccccc2)COc2ccc(C#CCCNS(C)(=O)=O)cc21 [Example 51] | RIPK1 kinase (Homo sapiens) | inhibition at 1 µM | 25 to 49% |
| CN1C(=O)[C@@H](NC(=O)C(=O)NCCc2ccccc2)COc2ccc(C#Cc3cnn(C)c3)cc21 [Example 22] | RIPK1 kinase (Homo sapiens) | inhibition at 1 µM | ≥ 75% |
| C[C@H](O)C#Cc1ccc2c(c1)N(C)C(=O)[C@@H](NC(=O)C(=O)NCCc1ccccc1)CO2 [Example 30] | RIPK1 kinase (Homo sapiens) | inhibition at 1 µM | 50 to 74% |
| CN1C(=O)[C@@H](NC(=O)C(=O)NCCc2ccccc2)COc2ccc(C#CC3CCN(CCOCCOCC(=O)OC(C)(C)C)CC3)cc21 [Example 53] | RIPK1 kinase (Homo sapiens) | inhibition at 1 µM | 25 to 49% |
| CN1C(=O)[C@@H](NC(=O)C(=O)NCCc2ccccc2)COc2ccc(C#CC3CCCNC3)cc21 (some centres unmarked) [Example 24] | RIPK1 kinase (Homo sapiens) | inhibition at 1 µM | 50 to 74% |

###

# inhibition at 1 µM listing for each entry below
experimentalSystem: RIPK1 kinase (Homo sapiens)
Construct: purchased Promega VA7593
assaySummary: In vitro RIPK1 kinase activity assay (ADP-Glo), inhibition by compounds at 1 μM
Format: biochemical
conditionContext: compound 1 μM; ATP 10 μM; MBP substrate 100 μg/mL; read-out: RIPK1 kinase activity inhibition rate range

| compound | experimentalSystem | inhibition at 1 µM |
| --- | --- | --- |
| CN1C(=O)[C@@H](NC(=O)C(=O)NCCc2ccccc2)COc2ccc(C#CCNC(=O)CO)cc21 | RIPK1 kinase (Homo sapiens) | ≥ 75% |
| CN1C(=O)[C@@H](NC(=O)C(=O)NCc2cc(F)cc(F)c2)COc2ccccc21 | RIPK1 kinase (Homo sapiens) | 25 to 49% |
| C[C@@H](NC(=O)C(=O)N[C@H]1COc2ccc(C#CC3(O)COC3)cc2N(C)C1=O)c1ccccc1 | RIPK1 kinase (Homo sapiens) | 50 to 74% |
| CN1C(=O)[C@H](NC(=O)C(=O)NCCc2ccccc2)COc2ccc(Br)cc21 | RIPK1 kinase (Homo sapiens) | 50 to 74% |
| CN1C(=O)[C@@H](NC(=O)C(=O)NCCc2ccccc2)COc2ccc(C#Cc3cccnc3)cc21 | RIPK1 kinase (Homo sapiens) | ≥ 75% |
| CN1C(=O)C(NC(=O)C(=O)NCCc2ccccc2)CCc2ccc(C#CC3CC3)cc21 (centres unmarked) | RIPK1 kinase (Homo sapiens) | ≥ 75% |
| CN1C(=O)[C@@H](NC(=O)C(=O)NCCc2ccccc2)COc2ccc(C#Cc3cc(F)cc(F)c3)cc21 | RIPK1 kinase (Homo sapiens) | 50 to 74% |
| CN1C(=O)[C@@H](NC(=O)C(=O)NCCc2ccccc2)COc2ccc(C#C[Si](C)(C)C)cc21 | RIPK1 kinase (Homo sapiens) | ≥ 75% |
| CN1C(=O)[C@@H](NC(=O)C(=O)NCCc2ccccc2)COc2ccc(C#CCN3CCC(=O)CC3)cc21 | RIPK1 kinase (Homo sapiens) | ≥ 75% |
| C=CC(=O)N1CC(C#Cc2ccc3c(c2)N(C)C(=O)[C@@H](NC(=O)C(=O)N[C@H](C)c2ccccc2)CO3)C1 | RIPK1 kinase (Homo sapiens) | ≥ 75% |
| CN1C(=O)[C@@H](NC(=O)C(=O)NCCc2cccc(F)c2)COc2ccc(C#CCN3CCN(CCO)CC3)cc21 | RIPK1 kinase (Homo sapiens) | ≥ 75% |
| CC(=O)N1CCN(CC#Cc2ccc3c(c2)N(C)C(=O)[C@@H](NC(=O)C(=O)N[C@H](C)c2ccccc2)CO3)CC1 | RIPK1 kinase (Homo sapiens) | ≥ 75% |
| CN1C(=O)[C@@H](NC(=O)C(=O)NCc2cccc(F)c2)COc2ccc(C#CCCO)cc21 | RIPK1 kinase (Homo sapiens) | ≥ 75% |
| C[C@@H](CNC(=O)C(=O)N[C@H]1COc2ccc(C#CCCO)cc2N(C)C1=O)c1ccccc1 | RIPK1 kinase (Homo sapiens) | ≥ 75% |

###

# EC50 listing for each entry below
System: U937 cells
assaySummary: EC50 of necroptosis inhibition in U937 cells (TSZ-induced, CellTiter-Glo)
Format: cell-based
conditionContext: Homo sapiens, U-937; TSZ (hTNF-α, SM-164, Z-VAD-FMK) 20 hours; 10 concentration points; read-out: EC50 intervals of necroptosis inhibition in U937 cells
propertyLabel: EC50

| compound | propertyLabel | reportedMeasurement |
| --- | --- | --- |
| CC(=O)N1CCN(CC#Cc2ccc3c(c2)N(C)C(=O)[C@@H](NC(=O)C(=O)N[C@H](C)c2ccccc2)CO3)CC1 | EC50 | < 100 nM |
| Cc1ncsc1-c1ccc(CNC(=O)[C@@H]2C[C@@H](O)CN2C(=O)[C@@H](NC(=O)CCOCCOCCOCCN2CCN(CC#Cc3ccc4c(c3)N(C)C(=O)[C@@H](NC(=O)C(=O)N[C@H](C)c3ccccc3)CO4)CC2)C(C)(C)C)cc1 | EC50 | < 100 nM |
| C[C@H](CNC(=O)C(=O)N[C@H]1COc2ccc(C#CCCO)cc2N(C)C1=O)c1ccccc1 | EC50 | < 100 nM |
| CN1C(=O)[C@@H](NC(=O)C(=O)NCCc2cccc(F)c2)COc2ccc(C#CCN3CCC(=O)C3)cc21 | EC50 | < 100 nM |
| CN1C(=O)[C@@H](NC(=O)C(=O)NCCc2ccccc2)COc2ccc(C#CCN3CCC(O)CC3)cc21 | EC50 | < 100 nM |
| C[C@@H](NC(=O)C(=O)N[C@H]1COc2ccc(C#CC3(O)COC3)cc2N(C)C1=O)c1ccccc1 | EC50 | < 100 nM |
| CN1C(=O)[C@@H](NC(=O)C(=O)NCc2ccccc2)COc2ccc(C#CCN3CCC(O)CC3)cc21 | EC50 | < 100 nM |
| CN1C(=O)[C@@H](NC(=O)C(=O)NCCc2cccc(F)c2)COc2ccc(C#CC3CCCNC3)cc21 (stereo partly shown) | EC50 | 100 to 500 nM |
| CN1C(=O)[C@@H](NC(=O)C(=O)NCc2ccccc2)COc2ccc(C#CCn3ccnc3)cc21 | EC50 | < 100 nM |
| CN1C(=O)[C@@H](NC(=O)C(=O)NCCc2ccccc2)COc2ccc(C#CC3CCNCC3)cc21 | EC50 | < 100 nM |
| C[C@@H](Cc1ccccc1)NC(=O)C(=O)N[C@H]1COc2ccc(C#CCCO)cc2N(C)C1=O | EC50 | 100 to 500 nM |
| C[C@@H](NC(=O)C(=O)N[C@H]1COc2ccc(C#CCCO)cc2N(C)C1=O)c1ccccc1 | EC50 | < 100 nM |
| CN1C(=O)[C@@H](NC(=O)C(=O)NCCc2ccccc2)COc2ccc(C#Cc3cnn(C)c3)cc21 | EC50 | < 100 nM |
